Experiment: amyloid nucleation score (Sup35N fusion, yeast selection) (log enrichment); library NNK3; higher = more nucleation; inactive = no reads after selection;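 note: zero at mode of non-aggregating sequences after 7 days selection at 30°C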
Property measured: amyloid nucleation score

{"Substance": "SIYCANQRSLVYHYVLAFTT", "Property measured": "amyloid nucleation score", "Result": "inactive"}
{"Substance": "AKWCVF", "Property measured": "amyloid nucleation score", "Result": -0.714}
{"Substance": "AWWMLN", "Property measured": "amyloid nucleation score", "Result": "inactive"}
{"Substance": "SLGQLYDLGSRW", "Property measured": "amyloid nucleation score", "Result": -0.805}
{"Substance": "SWITHSIGSDTATGYETFFN", "Property measured": "amyloid nucleation score", "Result": "inactive"}
{"Substance": "MALLLDILMNNNFISIKGFI", "Property measured": "amyloid nucleation score", "Result": "inactive"}

*Q* I would be grateful if you could share the reported amyloid nucleation score for "FYSCGNDAASMLFRLTSGGI" .
*A* inactive

*Q* Tell me the measured amyloid nucleation score of "KRDIVFLCGDWVDSFTCSGG" , please.
*A* 1.79

====

Collected amyloid nucleation score values appear next to each entry.
Assay: amyloid nucleation score (Sup35N fusion, yeast selection) (log enrichment); library NNK1; higher = more nucleation; inactive = no reads after selection
Keep the answer to the number alone.

{"Substance": "SFVWLR", "amyloid nucleation score": 2.67}
{"Substance": "WIVRPSGCGVTTR", "amyloid nucleation score": -0.414}
{"Substance": "ATSGGYGRFLVIISFDWVGA", "amyloid nucleation score": -0.34}
{"Substance": "DSRRGYPMMSMMWW", "amyloid nucleation score": -0.354}
{"Substance": "NTMGSNWYMVVNSWFVRRCS", "amyloid nucleation score": -1.01}

*Q* # query: amyloid nucleation score of entry "HVIYRLRGFITSSPFMTLRT"
*A* 0.577

*Q* Which amyloid nucleation score reading was recorded for the substance "CYFCYQGYMID" ?
*A* -0.537

*Q* # lookup: amyloid nucleation score of "FIKHGNLSAKQPVEKDLKLD"
*A* 0.414

====

Assay: amyloid nucleation score (Sup35N fusion, yeast selection) (log enrichment); library NNK2; higher = more nucleation; inactive = no reads after selection
Property measured: amyloid nucleation score

Known results for substances:
{"Substance": "RVSRRCVYWRRQGHWAIFGQ", "amyloid nucleation score": 0.098}
{"Substance": "CLVKCAMPILVINICAG", "amyloid nucleation score": 7.82}
{"Substance": "MMRVTIPGVVLSCWPFGSTR", "amyloid nucleation score": 3.09}
{"Substance": "NALHEIQLDICMRSIEARGY", "amyloid nucleation score": -1.19}
{"Substance": "ARCDCGFVRGGNCVVQYCLS", "amyloid nucleation score": 7.53}
{"Substance": "MRYEALMHPWSWRFR", "amyloid nucleation score": 1.06}
{"Substance": "TYIRSVYDAFAC", "amyloid nucleation score": "inactive"}
{"Substance": "LSSVMN", "amyloid nucleation score": -0.565}
{"Substance": "SIKVRMGEARVMNLVNTLGV", "amyloid nucleation score": "inactive"}
{"Substance": "RTEDPKTDYVKRGKRKWRVW", "amyloid nucleation score": -0.129}

*Q* Recorded amyloid nucleation score of "LSKLYTLVRNV" , please.
*A* -0.576

*Q* I have this substance here, "IEMLSNY" , and I need its recorded amyloid nucleation score.
*A* -0.575

*Q* Request the reported amyloid nucleation score associated with "LIVESI"
*A* inactive

*Q* Which amyloid nucleation score value belongs to "YFWTFTSWQTTGRCHSP" ?
*A* 0.521

*Q* Which amyloid nucleation score is reported for this substance? "FTLGANLT"
*A* -0.855

*Q* I would be grateful if you could share the reported amyloid nucleation score for "MLLHMWCWIGPGKYLSVTKF" .
*A* inactive

*Q* Query (substance): "LLLCYS" ; field requested: amyloid nucleation score
*A* -0.344

*Q* What does the data say about its amyloid nucleation score? Entry: "RLFYGCITGIVVSSILGVCM"
*A* 2.47

*Q* Returns the measured amyloid nucleation score for the input substance. Input: "SRIFVLYYSWDAWNSWGDVV"
*A* 0.602

*Q* amyloid nucleation score for "RWATAKRI" ?
*A* 0.194

*Q* What does the record list as amyloid nucleation score for "TVYGHRVGGRSFVL" ?
*A* 0.295

*Q* What value of amyloid nucleation score has been recorded for this entry: "WIVVSSIDSFFCVSSSPQFR"
*A* inactive

*Q* What amyloid nucleation score value was documented for this substance, "FARGNINLMVVFVFFDS" ?
*A* 5.77

*Q* Fill in: amyloid nucleation score of "KTTSISLAVEGYLVGISLIP" is ___
*A* 7.26

*Q* Give the measured amyloid nucleation score of "MYTAMSDSPFNVWRYGMSSY" .
*A* -0.382

*Q* Quick one: amyloid nucleation score for "MCMLTLRLNQLYMAIMHG" ?
*A* 0.603
